MEASUREMENT TARGET: MMP-13CD (catalytic domain of collagenase 3) (Homo sapiens)
ASSAY: Thiopeptolide substrate hydrolysis assay, MMP-13CD
Type: biochemical
TEST CONTEXT: thiopeptolide substrate, HEPES pH 7.0, 22° C.; read-out: IC50 (μM) Versus Certain MMPs: MMP-13 CD
Collected log10 of IC50 values appear next to each entry.
ASSAY READOUT: log10 of IC50 (log10 of the value in µM)

INSERT INTO results (molecule, endpoint_result) VALUES
  ('O=c1cc2sc(C(O)c3ccccc3)cn2c(=O)n1Cc1ccccc1 (centres unmarked)', 1.51),
  ('Cc1c(=O)n(CCNC(=O)c2ccccc2)c(=O)n2cc(C(=O)NCc3ccc(F)cc3)sc12', 1.00),
  ('Cc1c(=O)n(C(C)c2ccccc2)c(=O)n2cc(C(=O)NCc3ccc(F)cc3)sc12 (centres unmarked)', 0.32),
  ('Cc1c(=O)n(Cc2nn[nH]n2)c(=O)n2cc(C(=O)NCc3ccc(F)cc3)sc12', 1.15),
  ('Cc1c(=O)n(CCC(=O)c2ccccc2)c(=O)n2cc(C(=O)NCc3ccc(F)cc3)sc12', -0.46);

###

MEASUREMENT TARGET: MMP-3CD (catalytic domain of stromelysin-1) (Homo sapiens, UniProt P08254)
Sequence (P08254 100-272 limits assumed): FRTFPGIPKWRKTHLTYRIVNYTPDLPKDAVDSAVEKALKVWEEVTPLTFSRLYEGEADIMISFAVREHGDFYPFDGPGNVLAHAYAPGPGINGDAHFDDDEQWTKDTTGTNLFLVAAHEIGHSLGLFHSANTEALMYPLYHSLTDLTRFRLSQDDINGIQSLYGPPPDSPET
ASSAY: Thiopeptolide substrate hydrolysis assay, MMP-3CD
Assay type: biochemical
TEST CONTEXT: MES buffer pH 6.0, read-out: IC50 (μM) Versus Certain MMPs: MMP-03 CD
Counter-ions that a name gives are not always drawn.
Collected IC50 values appear next to each entry.
ASSAY READOUT: IC50 (µM)

INSERT INTO measurements (compound, unit_string, modifier_sign, endpoint_result) VALUES
  ('O=c1cc2sc(C(O)CCc3ccccc3)cn2c(=O)n1Cc1ccccc1 (stereo not shown)', 'µM', '>', 100),
  ('COc1cc(CNC(=O)c2cn3c(=O)n(Cc4ccccc4)c(=O)c(C)c3s2)ccn1 [Example 37a, hydrochloride]', 'µM', '=', 20.5),
  ('O=C(NCc1ccccc1)c1cn2c(=O)n(Cc3ccccc3)c(=O)cc2s1', 'µM', '=', 27),
  ('O=C(OCc1ccccc1)c1cn2c(=O)n(Cc3ccccc3)c(=O)cc2s1', 'µM', '=', 23);

###

Collected IC50 values appear next to each entry.
MEASUREMENT TARGET: MMP-14CD (catalytic domain of MMP-14) (Homo sapiens, UniProt P50281)
ASSAY: Thiopeptolide substrate hydrolysis assay, MMP-14CD
Format: biochemical
TEST CONTEXT: HEPES pH 7.0, 22° C., read-out: IC50 (μM) Versus Certain MMPs: MMP-14 CD
Structures can show the parent of a compound that is named as a salt.
ASSAY READOUT: IC50

INSERT INTO measurements (compound, endpoint_result) VALUES
  ('CC#CCn1c(=O)c(C)c2sc(C(=O)NCc3ccc(F)cc3)cn2c1=O', '> 100 µM'),
  ('Cc1c(=O)n(Cc2cccc(C#N)c2)c(=O)n2cc(C(=O)NCc3ccncc3)sc12 [Example 82, hydrochloride]', '> 30 µM'),
  ('O=C(NCc1ccccc1)c1cn2c(=O)n(Cc3ccc(Cl)c(Cl)c3)c(=O)cc2s1', '> 30 µM'),
  ('COC(=O)c1ccc(Cn2c(=O)c(C)c3sc(C(=O)NCc4ccc(F)cc4)cn3c2=O)cc1OC.Cl', '> 30 µM'),
  ('COc1ccc(CNC(=O)c2cn3c(=O)n(Cc4ccccc4)c(=O)c(C)c3s2)cc1', '> 30 µM'),
  ('Cc1c(=O)n(Cc2ccc(C(=O)OCCN(C)C)cc2)c(=O)n2cc(C(=O)NCc3ccncc3)sc12 [Example 63, dihydrochloride]', '> 100 µM'),
  ('Cc1c(=O)n(Cc2ccc(Cl)cc2)c(=O)n2cc(C(=O)NCc3ccncc3)sc12', '> 30 µM'),
  ('O=C(NCc1ccccc1)c1cn2c(=O)n(Cc3ccc(Cl)cc3)c(=O)cc2s1', '> 100 µM');

###

MEASUREMENT TARGET: MMP-7FL (full length matrilysin) (Homo sapiens)
Sequence (P09237 95-267, species assumed): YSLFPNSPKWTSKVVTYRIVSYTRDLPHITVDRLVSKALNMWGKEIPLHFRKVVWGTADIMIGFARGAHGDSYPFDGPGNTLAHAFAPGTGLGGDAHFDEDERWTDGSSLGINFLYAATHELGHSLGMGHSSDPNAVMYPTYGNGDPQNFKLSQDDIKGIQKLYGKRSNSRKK
ASSAY: Thiopeptolide substrate hydrolysis assay, MMP-7FL
Assay type: biochemical
TEST CONTEXT: HEPES pH 7.0, 22° C., read-out: IC50 (μM) Versus Certain MMPs: MMP-07 FL
Counter-ions that a name gives are not always drawn.
ASSAY READOUT: IC50

INSERT INTO results (compound, measurement_target, assay_readout, endpoint_result) VALUES
  ('Cc1cccc(CNC(=O)c2cn3c(=O)n(Cc4ccccc4)c(=O)c(C)c3s2)c1', 'MMP-7FL (full length matrilysin) (Homo sapiens)', 'IC50', '71 µM'),
  ('Cc1c(=O)n(Cc2ccccc2)c(=O)n2cc(C(=O)NCc3ccc(OC(F)(F)F)cc3)sc12', 'MMP-7FL (full length matrilysin) (Homo sapiens)', 'IC50', '> 30 µM'),
  ('Cc1c(=O)n(Cc2ccccc2)c(=O)n2cc(C(=O)NCc3ccc(F)cc3)sc12', 'MMP-7FL (full length matrilysin) (Homo sapiens)', 'IC50', '> 30 µM'),
  ('COC(=O)c1ccc(Cn2c(=O)c(C)c3sc(C(=O)NCc4ccc(OC)cc4)cn3c2=O)cc1', 'MMP-7FL (full length matrilysin) (Homo sapiens)', 'IC50', '> 100 µM'),
  ('COc1cccc(CNC(=O)c2cn3c(=O)n(Cc4ccccc4)c(=O)c(C)c3s2)c1', 'MMP-7FL (full length matrilysin) (Homo sapiens)', 'IC50', '> 30 µM'),
  ('Cc1c(=O)n(Cc2ccc(C#N)cc2)c(=O)n2cc(C(=O)NCc3ccncc3)sc12 [Example 85, hydrochloride]', 'MMP-7FL (full length matrilysin) (Homo sapiens)', 'IC50', '> 30 µM'),
  ('Cc1c(=O)n(Cc2ccccc2)c(=O)n2cc(C(=O)NCc3ccccc3)sc12', 'MMP-7FL (full length matrilysin) (Homo sapiens)', 'IC50', '> 30 µM'),
  ('COC(=O)c1ccc(Cn2c(=O)c(C)c3sc(C(=O)NCc4cccc(F)c4)cn3c2=O)cc1', 'MMP-7FL (full length matrilysin) (Homo sapiens)', 'IC50', '27 µM');

###

MEASUREMENT TARGET: MMP-13CD (catalytic domain of collagenase 3) (Homo sapiens, UniProt P45452)
ASSAY: Thiopeptolide substrate hydrolysis assay, MMP-13CD
Assay type: biochemical
TEST CONTEXT: thiopeptolide substrate, HEPES pH 7.0, 22° C.; read-out: IC50 (μM) Versus Certain MMPs: MMP-13 CD
Collected IC50 values appear next to each entry.
ASSAY READOUT: IC50 (µM)

INSERT INTO measurements (query_smiles, assay_readout, unit_string, modifier_sign, endpoint_result) VALUES
  ('C#CCNC(=O)c1cn2c(=O)n(Cc3ccccc3)c(=O)c(C)c2s1', 'IC50', 'µM', '>', 100),
  ('O=C(Nc1ccc(-c2ccccc2)cc1)c1cn2c(=O)n(Cc3ccccc3)c(=O)cc2s1', 'IC50', 'µM', '=', 23),
  ('Cc1c(=O)n(CCS(=O)(=O)c2ccccc2)c(=O)n2cc(C(=O)NCc3ccc(F)cc3)sc12', 'IC50', 'µM', '=', 1.2),
  ('CCC(CC)n1c(=O)c(C)c2sc(C(=O)NCc3ccc(F)cc3)cn2c1=O', 'IC50', 'µM', '>', 30),
  ('O=c1cc2sccn2c(=O)n1Cc1ccncc1', 'IC50', 'µM', '>', 100),
  ('O=C(NCc1ccccc1)c1cn2c(=O)n(Cc3ccc(Cl)c(Cl)c3)c(=O)cc2s1', 'IC50', 'µM', '=', 0.293);

###

MEASUREMENT TARGET: UniProtKB P08253
Sequence (P08253 110-660): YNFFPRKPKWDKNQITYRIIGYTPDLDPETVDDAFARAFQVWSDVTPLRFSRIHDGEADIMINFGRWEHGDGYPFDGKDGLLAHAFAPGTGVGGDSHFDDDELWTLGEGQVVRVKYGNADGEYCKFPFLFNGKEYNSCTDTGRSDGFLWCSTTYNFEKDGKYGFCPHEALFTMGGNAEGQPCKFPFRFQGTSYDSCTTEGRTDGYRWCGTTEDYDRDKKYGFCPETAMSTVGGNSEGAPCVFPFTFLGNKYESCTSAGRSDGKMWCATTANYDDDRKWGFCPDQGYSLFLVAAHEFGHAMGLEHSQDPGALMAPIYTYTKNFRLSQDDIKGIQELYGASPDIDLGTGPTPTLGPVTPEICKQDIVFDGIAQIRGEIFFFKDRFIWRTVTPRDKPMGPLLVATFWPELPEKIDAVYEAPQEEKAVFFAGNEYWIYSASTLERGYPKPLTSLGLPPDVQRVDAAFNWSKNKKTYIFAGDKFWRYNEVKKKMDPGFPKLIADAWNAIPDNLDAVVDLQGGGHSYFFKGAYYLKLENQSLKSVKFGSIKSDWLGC
ASSAY: Thiopeptolide substrate hydrolysis assay, MMP-2FL
Type: biochemical
TEST CONTEXT: HEPES pH 7.0, 22° C., read-out: IC50 (μM) Versus Certain MMPs: MMP-02 FL
Where a name gives a salt, the structure may show the parent alone.
Collected IC50 values appear next to each entry.
ASSAY READOUT: IC50

INSERT INTO assay_data (compound, endpoint_result) VALUES
  ('Cc1c(=O)n(Cc2ccccc2)c(=O)n2cc(C(=O)NCc3cccc(F)c3)sc12', '> 100 µM'),
  ('O=C(NCc1ccccc1)c1cn2c(=O)n(Cc3ccncc3)c(=O)cc2s1 [Example 15, hydrochloride]', '> 100 µM'),
  ('Cc1c(=O)n(Cc2cccc(C#N)c2)c(=O)n2cc(C(=O)NCc3ccncc3)sc12 [Example 82, hydrochloride]', '> 30 µM'),
  ('Cc1cccc(CNC(=O)c2cn3c(=O)n(Cc4ccccc4)c(=O)c(C)c3s2)c1', '> 30 µM'),
  ('COC(=O)Nc1cc(Cn2c(=O)c(C)c3sc(C(=O)NCc4ccc(F)cc4)cn3c2=O)on1', '> 30 µM'),
  ('Cc1c(=O)n(Cc2ccc(C#N)cc2)c(=O)n2cc(C(=O)NCc3ccncc3)sc12 [Example 85, hydrochloride]', '> 30 µM'),
  ('O=C(NCc1ccncc1)c1cn2c(=O)n(Cc3ccccc3)c(=O)cc2s1 [Example 9, hydrochloride]', '> 100 µM'),
  ('O=C(NCc1ccccc1)c1cn2c(=O)n(Cc3ccccc3)c(=O)cc2s1', '> 100 µM'),
  ('O=C(OCc1ccncc1)C1Cn2c(cc(=O)n(Cc3ccccc3)c2=O)S1 (stereo not drawn) [Example 21, hydrochloride]', '> 100 µM'),
  ('O=C(CCc1ccccc1)c1cn2c(=O)n(Cc3ccccc3)c(=O)cc2s1', '> 100 µM'),
  ('Cc1c(=O)n(Cc2ccc(C(=O)N3CCOCC3)cc2)c(=O)n2cc(C(=O)NCc3ccc(F)cc3)sc12', '> 30 µM'),
  ('CC#CCn1c(=O)c(C)c2sc(C(=O)NCc3ccc(F)cc3)cn2c1=O', '> 100 µM'),
  ('Cc1c(=O)n(Cc2ccccc2)c(=O)n2cc(C(=O)NCc3ccccc3)sc12', '> 100 µM'),
  ('Cc1c(=O)n(Cc2ccccc2)c(=O)n2cc(C(=O)NCc3ccc(Cl)cc3)sc12', '> 30 µM'),
  ('COC(=O)c1ccc(Cn2c(=O)c(C)c3sc(C(=O)NCc4ccc(F)cc4)cn3c2=O)cc1C', '> 100 µM');
